Tested on: HL-60 cells
Test: Growth of HL-60 cells (IC50)
Type: cell-based, human
Settings: Homo sapiens, HL-60, read-out: HL-60, IC50, HL-60 cells; value bracketed between tested concentrations
property: IC50

Ask: # lookup: IC50 of CC(C)[Si](OCC#CC1=C[C@@H]2C[C@@]3(OC(=O)C=C13)[C@H]1CCCCN21)(C(C)C)C(C)C
Result: 625 to 1250 nM

====

Can you tell me pEC50 for the items I'm about to list?
Tested on: HL-60 leukemic cells
Experiment: Nitroblue Tetrazolium (NBT) reduction assay, differentiation of HL-60 leukemic cells
Type: cell-based, human
Conditions: Homo sapiens; HL-60 cells; value bracketed between tested concentrations; read-out: HL-60, Dif50
pEC50: −log10 of the molar value.

Ask: Give the measured pEC50 of O=C1C=C2CC(NCC3CC3)[C@@H]3C[C@@]2(O1)[C@H]1CCCCN31 (some centres unmarked) [Compound 79] .
Result: 4.82 to 5.00

Ask: Please give the measured pEC50 for this compound: O=C1C=C2CC(SCC(F)(F)F)[C@@H]3C[C@@]2(O1)[C@H]1CCCCN31 (some centres unmarked) [Compound 67]
Result: 4.52 to 4.70

Ask: Give its pEC50 value. Item: NCCSC1CC2=CC(=O)O[C@@]23C[C@@H]1N1CCCC[C@@H]13 (some centres unmarked) [Compound 77]
Result: 4.82 to 5.00

Ask: I would be grateful if you could share the reported pEC50 for CC(C)SC1CC2=CC(=O)O[C@@]23C[C@@H]1N1CCCC[C@@H]13 (some centres unmarked) [Compound 75] .
Result: 4.70 to 4.82

Ask: // lookup pEC50 for CC(C)NCCSC1CC2=CC(=O)O[C@@]23C[C@@H]1N1CCCC[C@@H]13 (some centres unmarked) [Compound 100]
Result: 4.70 to 4.82

Ask: Which pEC50 value is on record for O=C1C=C2CC(SCc3cccs3)[C@@H]3C[C@@]2(O1)[C@H]1CCCCN31 (some centres unmarked) [Compound 69] ?
Result: 4.52 to 4.70

Ask: Tell me the measured pEC50 of O=C1C=C2CC(SC34CC5CC(CC(C5)C3)C4)[C@@H]3C[C@@]2(O1)[C@H]1CCCCN31 (some centres unmarked) [Compound 66] , please.
Result: < 4.52

Ask: Using the record for CCN(CC)CCSC1CC2=CC(=O)O[C@@]23C[C@@H]1N1CCCC[C@@H]13 (some centres unmarked) [Compound 73] , report its pEC50.
Result: 4.82 to 5.00

====

System: MOLT3
Assay: Growth inhibition of MOLT3 cells
Type: cell-based
Conditions: MOLT3 cells; read-out: MOLT3 IC50
property: IC50 (µM)
Number only, in µM; omit the unit.

Ask: // fetch MOLT3 IC50 for O=C1C=C2C(C#Cc3ccsc3)=C[C@@H]3C[C@@]2(O1)[C@H]1CCCCN31
Result: 0.1

====

Tested on: HL-60 cells
Test: Growth of HL-60 cells (IC50)
Type: cell-based, human
Settings: HL-60 cells; value bracketed between tested concentrations; read-out: HL-60, IC50
property: IC50

Ask: # IC50 lookup, item O=C1C=C2C(C#Cc3ccsc3)=C[C@@H]3C[C@@]2(O1)[C@H]1CCCCN31 [INVS-MG-136-III]
Result: < 70 nM

====

Would you kindly list EC50 for each of these compounds?
Test system: HL-60 leukemic cells
Assay: Nitroblue Tetrazolium (NBT) reduction assay, differentiation of HL-60 leukemic cells
Type: cell-based, human
Details: Homo sapiens; HL-60 cells; value bracketed between tested concentrations; read-out: HL-60, Dif50

Ask: Endpoint output: EC50 of O=C1C=C2CC(NC3CC(O)C3)[C@@H]3C[C@@]2(O1)[C@H]1CCCCN31 (some centres unmarked) . Value?
Result: 10 to 15 µM

Ask: Any idea what EC50 was measured for C[N+]12CCCC[C@@H]1[C@]13C[C@H]2C=CC1=CC(=O)O3 (some centres unmarked) ?
Result: > 30 µM

Ask: Item O=C(CCCC[C@@H]1SC[C@@H]2NC(=O)N[C@@H]21)NCCS[C@H]1CC2=CC(=O)O[C@@]23C[C@@H]1N1CCCC[C@@H]13 has what recorded EC50?
Result: 10 to 15 µM

Ask: Query (compound): O=C1C=C2CC(NC3CCCC3)[C@@H]3C[C@@]2(O1)[C@H]1CCCCN31 (some centres unmarked) ; field requested: EC50
Result: 10 to 15 µM

Ask: Fill blank: measured EC50 of the compound O=C1C=C2CC(NC3CCCCC3)[C@@H]3C[C@@]2(O1)[C@H]1CCCCN31 (some centres unmarked) is ____.
Result: 15 to 20 µM

Ask: # query: EC50 of entry O=C1C=C2CC(N3CCC(F)(F)C3)[C@@H]3C[C@@]2(O1)[C@H]1CCCCN31 (some centres unmarked)
Result: > 30 µM

Ask: Need EC50, item COc1ccc(CN[C@H]2CC3=CC(=O)O[C@@]34C[C@@H]2N2CCCC[C@@H]24)cc1
Result: 15 to 20 µM

Ask: State the recorded EC50 for this entry: O=C1C=C2CC(NC3CC3)[C@@H]3C[C@@]2(O1)[C@H]1CCCCN31 (some centres unmarked)
Result: 20 to 30 µM

====

Tested on: HL-60 leukemic cells
Experiment: Nitroblue Tetrazolium (NBT) reduction assay, differentiation of HL-60 leukemic cells
Format: cell-based, human
Settings: Homo sapiens; HL-60 cells; value bracketed between tested concentrations; read-out: HL-60, Dif50
pEC50: −log10 of the molar value.
property: pEC50

Ask: Need pEC50, item O=C1C=C2CC(n3ccnc3)[C@@H]3C[C@@]2(O1)[C@H]1CCCCN31 (stereo partly shown) [Compound 99]
Result: 4.70 to 4.82

Ask: Consider the molecule O=C1C=C2CC(n3cnc4ccccc43)[C@@H]3C[C@@]2(O1)[C@H]1CCCCN31 (stereo partly shown) [Compound 91] and give its measured pEC50.
Result: < 4.52

Ask: Which pEC50 value belongs to Nc1ccc(C#CC2=C[C@@H]3C[C@@]4(OC(=O)C=C24)[C@H]2CCCCN32)cc1 [Compound 53] ?
Result: 6.51 to 6.81

Ask: Item under review: O=C1C=C2CC(NC3CCCCCCC3)[C@@H]3C[C@@]2(O1)[C@H]1CCCCN31 (stereo partly shown) [Compound 84] . Reported pEC50?
Result: < 4.52

Ask: GET /values?readout=pEC50&item= CCCCSC1CC2=CC(=O)O[C@@]23C[C@@H]1N1CCCC[C@@H]13 (stereo partly shown) [Compound 72]
Result: 4.52 to 4.70

Ask: What does the record list as pEC50 for O=C1C=C2C[C@H](S(=O)(=O)c3ccccc3)[C@@H]3C[C@@]2(O1)[C@H]1CCCCN31 [Compound 88] ?
Result: 5.12 to 5.30

Ask: Name the reported pEC50 value associated with the molecule O=C1C=C2CC(n3nnc4ccccc43)[C@@H]3C[C@@]2(O1)[C@H]1CCCCN31 (stereo partly shown) [Compound 92]
Result: 4.52 to 4.70

Ask: Would you kindly share the measured pEC50 for O=C1C=C2CC(NC3CCCCCC3)[C@@H]3C[C@@]2(O1)[C@H]1CCCCN31 (stereo partly shown) [Compound 83] ?
Result: < 4.52

Ask: Given the molecule CC(C)(C)OC(=O)NCCSC1CC2=CC(=O)O[C@@]23C[C@@H]1N1CCCC[C@@H]13 (stereo partly shown) [Compound 95] , what is its reported pEC50?
Result: 4.70 to 4.82

Ask: So what's the measured pEC50 for this one? CCCSC1CC2=CC(=O)O[C@@]23C[C@@H]1N1CCCC[C@@H]13 (stereo partly shown) [Compound 74]
Result: 4.70 to 4.82
